test system: Heart; experiment: Biodistribution in heart of EMT6 tumor bearing BALB/c mouse at 10 to 20 uCi after 120 mins; type: ADME, organism-based; conditions: in vivo, 2 h
For each record, write down the corresponding Drug uptake.
Numbers only, in % ID/g.

Below, each entry is followed by its recorded Drug uptake result.
COc1cc2c(cc1OC)CN(CCCCNC(=O)c1cc(I)ccc1OCC[18F])CC2
1
COc1cc2c(cc1OC)CN(CCCCNC(=O)c1cc(C)ccc1OCC[18F])CC2
0.27
COc1cc2c(cc1OC)CN(CCCCNC(=O)c1cc(Br)ccc1OCC[18F])CC2
0.4

Could you now look at the following molecule, please?
Query string: If you can, please state the reported Drug uptake value of "COc1cc2c(cc1OC)CN(CCCCNC(=O)c1cc(I)cc(OC)c1OCC[18F])CC2" .
Result string: 0.39
